target.or.test.system: FLT4 (VEGFR3) (Homo sapiens (Human), UniProt P35916)
Sequence (P35916 25-1363): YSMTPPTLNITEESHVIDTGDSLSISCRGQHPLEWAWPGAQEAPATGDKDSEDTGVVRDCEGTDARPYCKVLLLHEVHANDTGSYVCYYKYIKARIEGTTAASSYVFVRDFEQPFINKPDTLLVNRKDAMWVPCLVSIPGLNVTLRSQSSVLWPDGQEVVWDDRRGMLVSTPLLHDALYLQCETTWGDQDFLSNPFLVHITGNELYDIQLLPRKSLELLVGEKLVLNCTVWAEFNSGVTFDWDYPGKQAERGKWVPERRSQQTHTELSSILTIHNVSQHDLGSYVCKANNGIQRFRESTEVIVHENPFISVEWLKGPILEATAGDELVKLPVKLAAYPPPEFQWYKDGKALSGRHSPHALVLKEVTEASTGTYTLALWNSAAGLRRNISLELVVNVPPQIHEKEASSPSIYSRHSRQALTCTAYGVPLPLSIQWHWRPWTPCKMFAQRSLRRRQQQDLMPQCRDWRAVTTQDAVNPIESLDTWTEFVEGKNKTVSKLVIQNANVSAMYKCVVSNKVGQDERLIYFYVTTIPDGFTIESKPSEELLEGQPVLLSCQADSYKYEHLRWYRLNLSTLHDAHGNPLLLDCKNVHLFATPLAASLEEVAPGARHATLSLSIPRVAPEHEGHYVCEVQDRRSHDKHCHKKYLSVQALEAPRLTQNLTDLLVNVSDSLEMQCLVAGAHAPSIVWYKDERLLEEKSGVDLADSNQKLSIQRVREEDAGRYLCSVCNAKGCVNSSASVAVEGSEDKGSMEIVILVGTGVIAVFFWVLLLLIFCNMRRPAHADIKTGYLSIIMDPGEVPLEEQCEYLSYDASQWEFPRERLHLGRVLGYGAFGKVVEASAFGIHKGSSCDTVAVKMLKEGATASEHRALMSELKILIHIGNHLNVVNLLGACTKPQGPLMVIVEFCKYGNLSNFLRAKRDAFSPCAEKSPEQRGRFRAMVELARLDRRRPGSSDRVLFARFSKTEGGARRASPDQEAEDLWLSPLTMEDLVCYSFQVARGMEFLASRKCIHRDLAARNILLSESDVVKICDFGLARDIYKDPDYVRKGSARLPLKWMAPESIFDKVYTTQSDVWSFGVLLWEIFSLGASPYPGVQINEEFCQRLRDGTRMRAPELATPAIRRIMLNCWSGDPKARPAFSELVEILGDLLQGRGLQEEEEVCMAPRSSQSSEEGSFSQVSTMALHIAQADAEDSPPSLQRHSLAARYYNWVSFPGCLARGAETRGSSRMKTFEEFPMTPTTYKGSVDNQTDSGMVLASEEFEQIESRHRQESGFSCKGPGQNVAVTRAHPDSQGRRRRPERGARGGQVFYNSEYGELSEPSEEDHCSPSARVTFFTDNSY
procedure.text: Kinase inhibition, Mobility Shift Assay (VEGFR3)
Format: biochemical
measurement.label: IC50

O=C(NC1CC1)c1ccccc1Sc1ccc2c(/C=C/c3cccc(CCCN4CCCC4)n3)n[nH]c2c1 [Compound I-121]; ≤ 1 nM
CNC(=O)c1ccccc1Sc1ccc2c(/C=C/c3ccnn3CCN3CCCC3)n[nH]c2c1 [Compound I-25]; 10 to 100 nM
CNC(=O)c1ccccc1Sc1ccc2c(/C=C/c3cc(OCCN4CCCC4)ccn3)n[nH]c2c1 [Compound I-20]; 10 to 100 nM

Give its IC50 value. Item: O=C(NC1CC1)c1ccccc1Sc1ccc2c(/C=C/c3cccc(CN4CCCC4)n3)n[nH]c2c1 [Compound I-117] 1 to 10 nM
